System: T98G
procedureText: Growth inhibition of AR-overexpressing human T98G cells measured after 48 hrs by MTT assay
Type: functional, cell-based
Listed molecules paired with reported IC50
Write the value in nM as a bare number.

For orientation, consider the following solved cases.
smilesstring=COc1ccc(OC)c(COc2cc(NC(=O)c3ccc(SC)cc3)ccc2NS(C)(=O)=O)c1 assayedtarget=T98G assayendpoint=IC50 unitsymbol=nM testresult=29
smilesstring=COc1ccc(OC)c(COc2cc(NC(=O)c3cccc([N+](=O)[O-])c3)ccc2NS(C)(=O)=O)c1 assayedtarget=T98G assayendpoint=IC50 unitsymbol=nM testresult=5070

Enter reported IC50 observed with T98G for "COc1ccc(OC)c(COc2cc(NC(=O)c3ccc(C#N)cc3)ccc2NS(C)(=O)=O)c1" 790

Checklist item: IC50 tested on T98G, entry "COc1ccc(OC)c(COc2cc(NC(=O)c3ccc(N(C)C)cc3)ccc2NS(C)(=O)=O)c1" , value? 1910
